Assay: in vivo
Settings: Sprague-Dawley, rat, brain, iv, 2 (umol/kg)/hr
Listing of entries alongside the reported Kp at 4 h.

Q: Which value of Kp at 4 h has been reported for COc1ccc2c3c1O[C@H]1[C@@H](O)C=C[C@H]4[C@@H](C2)N(C)CC[C@@]341 [CODEINE] in the records?
Ans: 2.7

Q: Param item: COc1cccc(C2(O)CCCCC2CN(C)C)c1 (stereo unspecified) [TRAMADOL]
Ans: 5.29

Q: Param item: CC(=O)O[C@H]1C(=O)[C@@]2(C)[C@H]([C@H](OC(=O)c3ccccc3)[C@]3(O)C[C@H](OC(=O)[C@H](O)[C@@H](NC(=O)c4ccccc4)c4ccccc4)C(C)=C1C3(C)C)[C@]1(OC(C)=O)CO[C@@H]1C[C@@H]2O [PACLITAXEL]
Ans: 0.28

Q: Param item: O=C(O)c1ccccc1O [SALICYLIC ACID]
Ans: 0.05

Q: Param item: CN(Cc1cnc2nc(N)nc(N)c2n1)c1ccc(C(=O)N[C@@H](CCC(=O)O)C(=O)O)cc1 [METHOTREXATE]
Ans: 0.004

Q: Param item: CSc1ccc2c(c1)N(CCC1CCCCN1C)c1ccccc1S2 (stereo unspecified) [THIORIDAZINE]
Ans: 3.75

Q: Param item: C=CCc1ccccc1OCC(O)CNC(C)C (stereo unspecified) [ALPRENOLOL]
Ans: 8.27

---

Test system: Brain
Conditions: rat, in vivo, iv, 4 h
measured-quantity: log10 Vdu (log10 of the value in mL)
// stored as log10 of Vdu expressed in mL

Answered cases to consult:
[
  {
    "compound": "CC(=O)O[C@H]1C(=O)[C@@]2(C)[C@H]([C@H](OC(=O)c3ccccc3)[C@]3(O)C[C@H](OC(=O)[C@H](O)[C@@H](NC(=O)c4ccccc4)c4ccccc4)C(C)=C1C3(C)C)[C@]1(OC(C)=O)CO[C@@H]1C[C@@H]2O [PACLITAXEL]",
    "measured-quantity": "log10 Vdu",
    "observed-value": 2.89
  },
  {
    "compound": "CC(C)NCC(O)COc1cccc2ccccc12 (stereo not drawn) [PROPRANOLOL]",
    "measured-quantity": "log10 Vdu",
    "observed-value": 2.07
  },
  {
    "compound": "C=CCOc1ccccc1OCC(O)CNC(C)C (stereo not drawn) [OXPRENOLOL]",
    "measured-quantity": "log10 Vdu",
    "observed-value": 1.07
  },
  {
    "compound": "NCC(CC(=O)O)c1ccc(Cl)cc1 (stereo not drawn) [BACLOFEN]",
    "measured-quantity": "log10 Vdu",
    "observed-value": 0.23
  },
  {
    "compound": "CN(C)C(=O)C(CCN1CCC(O)(c2ccc(Cl)cc2)CC1)(c1ccccc1)c1ccccc1 [LOPERAMIDE]",
    "measured-quantity": "log10 Vdu",
    "observed-value": 2.57
  }
]

Q: Which value of log10 Vdu has been reported for CN1CC[C@]23c4c5ccc(O)c4O[C@H]2[C@@H](O[C@@H]2O[C@H](C(=O)O)[C@@H](O)[C@H](O)[C@H]2O)C=C[C@H]3[C@H]1C5 [MORPHINE GLUCURONIDE] in the records?
Ans: 0.00

Q: Param item: C[C@H]1COc2c(N3CCN(C)CC3)c(F)cc3c(=O)c(C(=O)O)cn1c23.C[C@H]1COc2c(N3CCN(C)CC3)c(F)cc3c(=O)c(C(=O)O)cn1c23.O [LEVOFLOXACIN]
Ans: 0.23

Q: Param item: CN(C)CCC=C1c2ccccc2CCc2ccccc21 [AMITRIPTYLINE]
Ans: 2.49

---

Experiment: clinical
Conditions: human, CSF and plasma
Listing of entries alongside the reported Kp uu.
Form: value (number only, do not type unit).

[
  {
    "compound": "CN(C)CCC=C1c2ccccc2CCc2ccccc21",
    "observed-value": 0.18
  }
]

Next:
Q: Which value of Kp uu has been reported for CC(C)Nc1cccnc1N1CCN(C(=O)c2cc3cc(NS(C)(=O)=O)ccc3[nH]2)CC1 in the records?
Ans: 0.23

---

Test: in vivo
Settings: Sprague-Dawley, rat, brain and plasma, iv, 2 (umol/kg)/hr
Rule: Kp at 4 h below 0.1 gives met, anything at or above gives not met.

[
  {
    "compound": "NCC(CC(=O)O)c1ccc(Cl)cc1 (centres undefined) [BACLOFEN]",
    "label": "met"
  }
]

Here's the next entry for you.
Q: Bench note: check whether CC1(C)O[C@@H]2[C@@H](CO[C@@]3(COS(N)(=O)=O)OC(C)(C)O[C@@H]23)O1 [TOPIRAMATE] shows Kp at 4 h below 0.1
Ans: not met

---

Tested on: Plasma
Settings: rat, iv, 4 h
Quick rule: Cp(f) of at least 200 nM means True, below that means False.

[
  {
    "molecule": "CC(C)NCC(O)COc1cccc2[nH]ccc12 (configuration not stated)",
    "label": "False"
  },
  {
    "molecule": "O=C(O)c1ccccc1O",
    "label": "True"
  },
  {
    "molecule": "COc1ccc(CCN(C)CCCC(C#N)(c2ccc(OC)c(OC)c2)C(C)C)cc1OC (configuration not stated)",
    "label": "False"
  },
  {
    "molecule": "COCCc1ccc(OCC(O)CNC(C)C)cc1 (configuration not stated)",
    "label": "True"
  },
  {
    "molecule": "CN(C)CCC=C1c2ccccc2CCc2ccccc21",
    "label": "False"
  }
]

Q: Does the reported Cp(f) for CSc1ccc2c(c1)N(CCC1CCCCN1C)c1ccccc1S2 (configuration not stated) fall at or above the 200 nM mark?
Ans: False

Q: Param item: CN1CC[C@]23c4c5ccc(O[C@@H]6O[C@H](C(=O)O)[C@@H](O)[C@H](O)[C@H]6O)c4O[C@H]2[C@@H](O)C=C[C@H]3[C@H]1C5 [MORPHINE 3-GLUCURONIDE]
Ans: True

---

Experiment: in vivo
Settings: Sprague-Dawley, rat, brain and plasma, iv, 2 (umol/kg)/hr
Listing of entries alongside the reported Kp uu at 4 h.
Form: value (number only, do not type unit).

[
  {
    "molecule": "CC(NC(C)(C)C)C(=O)c1cccc(Cl)c1 (centres undefined)",
    "observed-value": 2
  },
  {
    "molecule": "NCC(CC(=O)O)c1ccc(Cl)cc1 (centres undefined)",
    "observed-value": 0.02
  },
  {
    "molecule": "Cc1c(O)cccc1C(=O)N[C@@H](CSc1ccccc1)[C@H](O)CN1C[C@H]2CCCC[C@H]2C[C@H]1C(=O)NC(C)(C)C",
    "observed-value": 0.019
  },
  {
    "molecule": "CC(=O)O[C@H]1C(=O)[C@@]2(C)[C@H]([C@H](OC(=O)c3ccccc3)[C@]3(O)C[C@H](OC(=O)[C@H](O)[C@@H](NC(=O)c4ccccc4)c4ccccc4)C(C)=C1C3(C)C)[C@]1(OC(C)=O)CO[C@@H]1C[C@@H]2O",
    "observed-value": 0.007
  },
  {
    "molecule": "CN(C)C(=O)C(CCN1CCC(O)(c2ccc(Cl)cc2)CC1)(c1ccccc1)c1ccccc1 [LOPERAMIDE]",
    "observed-value": 0.007
  }
]

Q: Which value of Kp uu at 4 h has been reported for CN1CC[C@]23c4c5ccc(O[C@@H]6O[C@H](C(=O)O)[C@@H](O)[C@H](O)[C@H]6O)c4O[C@H]2[C@@H](O)C=C[C@H]3[C@H]1C5 [MORPHINE 3-GLUCURONIDE] in the records?
Ans: 0.011

Q: Param item: CN(C)CCC=C1c2ccccc2CCc2ccccc21
Ans: 0.73

Q: Param item: CN1CC[C@]23c4c5ccc(O)c4O[C@H]2[C@@H](O[C@@H]2O[C@H](C(=O)O)[C@@H](O)[C@H](O)[C@H]2O)C=C[C@H]3[C@H]1C5 [MORPHINE GLUCURONIDE]
Ans: 0.008

Q: Param item: CC1(C)O[C@@H]2[C@@H](CO[C@@]3(COS(N)(=O)=O)OC(C)(C)O[C@@H]23)O1 [TOPIRAMATE]
Ans: 0.33

---

System: Plasma
Conditions: rat, iv, 4 h
measured-quantity: Cp(f)

Answered cases to consult:
[
  {
    "molecule": "Nc1c2c(nc3ccccc13)CCCC2",
    "Cp(f)": "120 nM"
  },
  {
    "molecule": "O=C1CN(/N=C/c2ccc([N+](=O)[O-])o2)C(=O)N1",
    "Cp(f)": "710 nM"
  },
  {
    "molecule": "CO/N=C(\\C(=O)N[C@@H]1C(=O)N2C(C(=O)O)=C(COC(C)=O)CS[C@H]12)c1csc(N)n1",
    "Cp(f)": "2800 nM"
  },
  {
    "molecule": "CN1CC[C@]23c4c5ccc(O)c4O[C@H]2[C@@H](O[C@@H]2O[C@H](C(=O)O)[C@@H](O)[C@H](O)[C@H]2O)C=C[C@H]3[C@H]1C5 [MORPHINE GLUCURONIDE]",
    "Cp(f)": "2100 nM"
  }
]

Next:
Q: Give recorded Cp(f) with Plasma for the following molecule: CC(C)NCC(O)COc1cccc2ccccc12 (stereo not given)
Ans: 51 nM
